# Target system: GST tagged LXRbeta LBD (ligand binding domain) (Homo sapiens)
# Construct: purchased Invitrogen pv4658.pps
# Sequence (P55055 222-460 limits assumed): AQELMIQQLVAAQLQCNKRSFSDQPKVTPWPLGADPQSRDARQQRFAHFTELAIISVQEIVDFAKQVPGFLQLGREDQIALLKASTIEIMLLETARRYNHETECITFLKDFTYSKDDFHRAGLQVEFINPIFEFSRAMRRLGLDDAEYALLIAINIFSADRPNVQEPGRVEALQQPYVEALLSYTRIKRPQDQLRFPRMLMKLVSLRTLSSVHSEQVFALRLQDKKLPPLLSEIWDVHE
# Test details: LanthaScreen TR-FRET Liver X Receptor Coactivator Assay, LXR beta-LBD
# Assay type: biochemical
# Test conditions: activity at max dose (efficacy), relative to reference T0901317; read-out: LXR beta act @ max dose (%)
Measurement name: Emax (%)

• CC(C)N(C)C(=O)c1ccc(N2CCC(C3CCN(C(=O)C(O)(C(C)C)C(F)(F)F)CC3)CC2)cc1Cl (centres unmarked) [Example E-6] = 101
• CN(C)C(=O)c1ccc(N2CCC(C3CCN(C(=O)[C@](O)(c4ccccc4)C(F)(F)F)CC3)CC2)cc1Cl [Example A-13] = 106
• COCCCN(C)C(=O)c1ccc(N2CCC(C3CCN(C(=O)[C@](O)(c4ccccc4)C(F)(F)F)CC3)CC2)cc1Cl [Example E-48] = 106
• CC(C)C(O)(C(=O)N1CCC(C2CCN(c3ccc(C(=O)N(C)C)c(F)c3)CC2)CC1)C(F)(F)F [Example D-2] = 99
• O=C(c1ccc(N2CCC(C3CCN(C(=O)[C@](O)(c4ccccc4)C(F)(F)F)CC3)CC2)cc1Cl)N1CCCC1 [Example E-20] = 78
• CN(C)C(=O)c1ccc(N2CCC(C3CCN(C(=O)C(F)(F)c4cccc(F)c4)CC3)CC2)cc1Cl [Example A-69] = 113
• Cc1cccc(C(O)(C(=O)N2CCC(C3CCN(c4ccc(C(=O)N(C)C)c(Cl)c4)CC3)CC2)C(F)(F)F)c1 (centres unmarked) [Example A-68] = 91
• CN(C)C(=O)c1ccc(N2CCC(C3CCN(C(=O)c4ccccc4C(F)(F)F)CC3)CC2)cc1Cl [Example A-21] = 95
• CC(C)C(O)(C(=O)N1CCC(C2CCN(c3ccc(C(=O)N(C)C)c(Cl)n3)CC2)CC1)C(F)(F)F (stereo in doubt) [Example B-6] = 108
• Cc1nc(CCN(C)C(=O)c2ccc(N3CCC(C4CCN(C(=O)[C@](O)(c5ccccc5)C(F)(F)F)CC4)CC3)cc2Cl)no1 [Example E-55] = 106
• CC(C)C(O)(C(=O)N1CCC(C2CCN(c3ccc(C(=O)N(C)C)c(Cl)c3)CC2)CC1)C(C)C [Example A-109] = 98
• O=C(c1ccc(N2CCC(C3CCN(C(=O)[C@](O)(c4ccccc4)C(F)(F)F)CC3)CC2)cc1Cl)N1CCC[C@H]1CO [Example E-63] = 86
• O=C(c1ccc(N2CCC(C3CCN(C(=O)[C@](O)(c4ccccc4)C(F)(F)F)CC3)CC2)cc1Cl)N1CCCC2(CC2)C1 [Example E-37] = 70
• CC(C)(C)OC(=O)NCC1CN(C(=O)c2ccc(N3CCC(C4CCN(C(=O)[C@](O)(c5ccccc5)C(F)(F)F)CC4)CC3)cc2Cl)C1 [Example E-39] = 99

----------
# Target system: GST tagged LXRalpha LBD (ligand binding domain) (Homo sapiens, UniProt Q13133)
# Construct: purchased Invitrogen pv4655
# Sequence (Q13133 209-447 limits assumed): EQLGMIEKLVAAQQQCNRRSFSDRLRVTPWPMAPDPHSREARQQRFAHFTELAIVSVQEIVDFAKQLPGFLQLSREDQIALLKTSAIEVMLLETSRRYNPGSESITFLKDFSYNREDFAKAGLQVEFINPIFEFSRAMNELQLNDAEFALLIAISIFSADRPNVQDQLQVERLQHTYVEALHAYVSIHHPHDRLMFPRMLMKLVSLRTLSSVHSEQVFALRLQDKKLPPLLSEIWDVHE
# Test details: LanthaScreen TR-FRET Liver X Receptor Coactivator Assay, LXR alpha-LBD
# Assay type: biochemical
# Test conditions: activity at max dose (efficacy), relative to reference T0901317; read-out: LXR alpha act @ max dose (%)
Measurement name: Emax (%)

• CN(C)C(=O)c1ccc(N2CCC(C3CCN(C(=O)C45CC(C4)C5)CC3)CC2)cc1Cl [Example A-15] = 31
• CCCN(C)C(=O)c1ccc(N2CCC(C3CCN(C(=O)[C@](O)(c4ccccc4)C(F)(F)F)CC3)CC2)cc1Cl [Example E-61] = 29
• CC1CCCN1C(=O)c1ccc(N2CCC(C3CCN(C(=O)[C@](O)(c4ccccc4)C(F)(F)F)CC3)CC2)cc1Cl (stereo partly shown) [Example E-25] = 15
• CN(C)C(=O)c1ccc(N2CCC(C3CCN(C(=O)C(O)(c4ccccc4)C4CC4)CC3)CC2)cc1Cl (stereo not shown) [Example A-52] = 22
• CC(C)(C(=O)N1CCC(C2CCN(c3ccc(C(=O)N4CCCC4)c(Cl)c3)CC2)CC1)c1ccccc1 [Example E-18] = 52
• CC(C)(C)OC(=O)NCC1CN(C(=O)c2ccc(N3CCC(C4CCN(C(=O)[C@](O)(c5ccccc5)C(F)(F)F)CC4)CC3)cc2Cl)C1 [Example E-39] = 43
• CN(C)C(=O)c1ccc(N2CCC(C3CCN(C(=O)c4ccccc4Cl)CC3)CC2)cc1Cl [Example A-22] = 3

----------
# Target system: GST tagged LXRalpha LBD (ligand binding domain) (Homo sapiens)
# Construct: purchased Invitrogen pv4655
# Test details: LanthaScreen TR-FRET Liver X Receptor Coactivator Assay, LXR alpha-LBD
# Assay type: biochemical
# Test conditions: activity at max dose (efficacy), relative to reference T0901317; read-out: LXR alpha act @ max dose (%)
Emax less than 30% is Met; Emax greater than or equal to 30% is Not met.

• CCC1CCN(C(=O)c2ccc(N3CCC(C4CCN(C(=O)[C@](O)(c5ccccc5)C(F)(F)F)CC4)CC3)cc2Cl)C1 (some centres unmarked) [Example E-29] = Met
• O=C(c1ccc(N2CCC(C3CCN(C(=O)[C@](O)(c4ccccc4)C(F)(F)F)CC3)CC2)cc1Cl)N1CCCC1 [Example E-20] = Met
• CNC(=O)c1ccc(N2CCC(C3CCN(C(=O)C(O)(C(C)C)C(F)(F)F)CC3)CC2)cc1Cl (centres unmarked) [Example E-5] = Not met
• O=C(c1ccc(N2CCC(C3CCN(C(=O)[C@](O)(c4ccccc4)C(F)(F)F)CC3)CC2)cc1Cl)N1CC(N2CCCCC2)C1 [Example E-44] = Not met
• O=C(c1c(F)cccc1F)N1CCC(C2CCN(c3ccc(C(=O)N4CCCC4CO)c(Cl)c3)CC2)CC1 (centres unmarked) [Example E-12] = Not met
• CC(C)C(O)(C(=O)N1CCC(C2CCN(c3ccc(C(N)=O)c(Cl)c3)CC2)CC1)C(F)(F)F (centres unmarked) [Example E-4] = Not met
• CN(C)C(=O)c1ccc(N2CCC(C3CCN(C(=O)C(O)(c4ccccc4)C(F)(F)F)CC3)CC2)nc1Cl (centres unmarked) [Example B-13] = Met
• CC(C)N(C(=O)c1ccc(N2CCC(C3CCN(C(=O)C(O)(C(C)C)C(F)(F)F)CC3)CC2)cc1Cl)C(C)C (centres unmarked) [Example E-11] = Met
• COc1ccccc1C(O)(C(=O)N1CCC(C2CCN(c3ccc(C(=O)N(C)C)c(Cl)c3)CC2)CC1)C(F)(F)F (centres unmarked) [Example A-97] = Not met
• O=C(c1ccc(N2CCC(C3CCN(C(=O)[C@](O)(c4ccccc4)C(F)(F)C(F)(F)F)CC3)CC2)cc1Cl)N1CCCC1 [Example E-17] = Not met
• CC(C)C(O)(C(=O)N1CCC(C2CCN(c3cc(Cl)c(C(=O)N(C)C)c(Cl)c3)CC2)CC1)C(F)(F)F (centres unmarked) [Example A-34] = Not met
• CN(C)C(=O)c1ccc(N2CCC(C3CCN(C(=O)C(O)(C(F)(F)F)C4(C)CC4)CC3)CC2)cc1Cl (centres unmarked) [Example A-30] = Not met
• CN(C)C(=O)c1ccc(N2CCC(C3CCN(C(=O)C4(c5ccccc5Cl)CC4)CC3)CC2)cc1Cl [Example A-86] = Not met
• CN(C)C(=O)c1ccc(N2CCC(C3CCN(C(=O)[C@](O)(c4ccccc4)C(F)(F)C(F)(F)F)CC3)CC2)cc1Cl (single isomer, unassigned) [Example A-20] = Met

----------
Below, each of the compounds is paired with its reported Emax value.
# Target system: GST tagged LXRbeta LBD (ligand binding domain) (Homo sapiens)
# Construct: purchased Invitrogen pv4658.pps
# Test details: LanthaScreen TR-FRET Liver X Receptor Coactivator Assay, LXR beta-LBD
# Assay type: biochemical
# Test conditions: activity at max dose (efficacy), relative to reference T0901317; read-out: LXR beta act @ max dose (%)
Measurement name: Emax (%)

- CN(C)C(=O)c1ccc(N2CCC(C3CCN(C(=O)C(C)(C)c4ccccc4)CC3)CC2)cc1Cl [Example A-12]: 114
- CCCCN(C)C(=O)c1ccc(N2CCC(C3CCN(C(=O)[C@](O)(c4ccccc4)C(F)(F)F)CC3)CC2)cc1Cl [Example E-59]: 89
- CN(C)C(=O)c1ccc(N2CCC(C3CCN(C(=O)C4(c5ccccc5F)CC4)CC3)CC2)cc1Cl [Example A-71]: 127
- CN(C)C(=O)c1ccc(N2CCC(C3CCN(C(=O)C4(c5c(F)cccc5Cl)CCCC4)CC3)CC2)cc1Cl [Example A-82]: 107
- CNC(=O)c1ccc(N2CCC(C3CCN(C(=O)[C@](O)(c4ccccc4)C(F)(F)F)CC3)CC2)cc1Cl [Example E-62]: 99
- CN(C)C(=O)c1ccc(N2CCC(C3CCN(C(=O)C(F)(F)c4ccc(F)cc4)CC3)CC2)cc1Cl [Example A-63]: 114
- O=C(c1ccc(N2CCC(C3CCN(C(=O)[C@](O)(c4ccccc4)C(F)(F)F)CC3)CC2)cc1Cl)N1CC(F)(F)C1 [Example E-34]: 83
